These data points were gathered from PubChem BioAssay (NCI).

- Test system: NCI-H23 lung
- measurementNotes: NCI tumour cell line growth inhibition, 48 h
parameter: TGI (µM)
# unit: µM | format: bare number

Prompt: Can you look up the measured TGI of C=C1C(=O)O[C@@H]2O[C@@]3(C)CC[C@H]4[C@H](C)CC[C@@H]1[C@@]24O3 for me?
Completion: 40.1

Prompt: Thanks! And N#Cc1c(-c2ccc(Cl)cc2)csc1NC(=O)Nc1ccc(Cl)c(C(F)(F)F)c1 ?
Completion: 16.7

Prompt: COC(=O)C1=C(OC(=O)c2ccccc2)C(C(=O)OC)[C@]2(O)[C@@H](C(=O)OC)C1CC(c1ccccc1OC)[C@@H]2C(=O)OC (stereo partly drawn) ?
Completion: 72.7

Prompt: Do the same for C/C(=N\NC(=S)Nc1ccccc1)c1nc2ncccc2[nH]1 please
Completion: 48.7

Prompt: Now this one: CCOC(=O)c1ccc2c(c1)[n+](=O)c(C(=O)C1CCCS1)c(C(F)(F)F)n2[O-] (stereo not drawn)
Completion: 2.2
